Recorded Inflammasome: Fold Decrease IL-1β (max response at 0.3 µg/ml) values for a group of binders are listed next.
tgt: T1, full-length untagged human GPNMB expressed on cells (human, UniProt Q14956 23-572)
T1 sequence: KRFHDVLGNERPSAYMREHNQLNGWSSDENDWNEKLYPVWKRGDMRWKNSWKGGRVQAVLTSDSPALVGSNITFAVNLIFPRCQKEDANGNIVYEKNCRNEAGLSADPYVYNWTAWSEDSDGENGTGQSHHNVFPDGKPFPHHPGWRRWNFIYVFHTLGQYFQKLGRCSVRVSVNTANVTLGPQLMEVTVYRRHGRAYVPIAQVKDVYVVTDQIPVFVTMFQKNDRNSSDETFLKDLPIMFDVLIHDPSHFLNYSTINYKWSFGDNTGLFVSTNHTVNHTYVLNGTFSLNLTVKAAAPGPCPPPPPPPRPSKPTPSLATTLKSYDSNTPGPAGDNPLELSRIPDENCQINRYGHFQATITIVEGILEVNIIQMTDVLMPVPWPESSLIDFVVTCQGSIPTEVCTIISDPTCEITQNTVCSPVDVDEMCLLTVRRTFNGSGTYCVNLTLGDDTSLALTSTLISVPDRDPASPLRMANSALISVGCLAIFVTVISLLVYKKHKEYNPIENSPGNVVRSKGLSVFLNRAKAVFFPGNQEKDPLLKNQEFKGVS
assay.details: cell-based or functional assay
property.measured: Inflammasome: Fold Decrease IL-1β (max response at 0.3 µg/ml) (fold)

- anti-GPNMB antibody GPN-85 (antibody, V domains shown) VH: QVQLQESGPGLVKPSETLSLTCTVSGISITTGNYRWSWIRQPPGKGLEWIGYIDYSGTITYNPSLKQRVTITRDTSKNQFSLELSSVTAADTAVYYCARDLTHWYFDVWGQGTLVTVSS VL: DIVMTQSPDSLAVSLGERATINCKSSRSVDYFGIGFLNWYQQKPGQPPKLLIYATSHQGSGVPDRFSGSGSGTDFTLTISSLQAEDVAVYYCQQQKEVPPTFGGGTKVEIK: 0.601
- anti-GPNMB antibody GPN-90 (antibody, V domains shown) VH: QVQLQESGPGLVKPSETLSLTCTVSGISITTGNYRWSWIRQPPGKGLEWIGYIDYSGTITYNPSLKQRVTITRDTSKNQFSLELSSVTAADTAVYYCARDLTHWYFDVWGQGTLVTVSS VL: DIVMTQSPDSLAVSLGERATINCKSSRSVDYYGIGFLNWYQQKPGQPPKLLIYATSHQGSGVPDRFSGSGSGTDFTLTISSLQAEDVAVYYCQQQKEVPPTFGGGTKVEIK: 0.564
- anti-GPNMB antibody GPN-96 (antibody, V domains shown) VH: QVQLVQSGAEVKKPGASVKVSCKASGYTFTSYWMHWVRQAPGQGLEWMGEINPYDQRTNYAQKFQGRVTMTVDKSTSTVYMELSSLRSEDTAVYYCARSTGNYAWFAYWGQGTLVTVSS VL: DIVMTQSPDSLAVSLGERATINCKASQDVSPSLAWYQQKPGQPPKLLIYRASYRYTGVPDRFSGSGSGTDFTLTISSLQAEDVAVYYCQQHYSIPLTFGGGTKVEIK: 0.525
- anti-GPNMB antibody GPN-98 (antibody, V domains shown) VH: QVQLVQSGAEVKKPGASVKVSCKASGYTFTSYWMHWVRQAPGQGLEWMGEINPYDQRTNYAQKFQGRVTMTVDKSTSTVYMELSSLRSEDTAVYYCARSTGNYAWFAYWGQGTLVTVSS VL: DIVMTQSPDSLAVSLGERATINCKASQDVSPSLAWYQQKPGQPPKLLIYSASYRYTGVPDRFSGSGSGTDFTLTISSLQAEDVAVYYCQQHYSIPLTFGGGTKVEIK: 0.664
